Let's look at some binders and their measured EC50 (read off the curve).
Target: T1, His-tagged cynomolgous macaque BCMA (Acro Biosystems, BCA-C52H7) (cynomolgus macaque, UniProt Q02223 1-54 (human entry))
T1 construct: Bought protein; also called cyno BCMA; CyBCMA; not shown: His tag
Experiment: ELISA, coated His-tagged cynomolgus BCMA

// worked examples, EC50 (read off the curve) included
binder	EC50 (read off the curve)
552-LN2-F8 hIgG1 (antibody, V domains shown, Human-mouse chimeric antibody, human IgG1 format; also called [9]) VH: QIQLVQSGPELKKPGETVKISCKASGYTFTDYTMYWVKQAPGKGLKWMGWINTETGEPTYADDFKGRFVFSLETSANTAYLQINNLKNEDTATYFCAISYYYGMDYWGQGTSVTVTS VL: DIILTQSPASLAVSLGQRATITCRASKSVSTSGYNFVYWYQQKPGQPPKLLIYLASNLESGVPARFSGSGSGTDFTLNIHPVEEEDAATYYCQHSRELPRTFGGGTKLEIKR	~0.08 µg/mL
552-LN1-E9 hIgG1 (antibody, V domains shown, Human-mouse chimeric antibody, human IgG1 format; also called [6]) VH: QIQLVQSGPELKKPGETVKISCKASGYTFTDYSIYWVKQAPGKGLKWMGWINTETGEPTYADDFKGRFAFSLETSASSAYLQINTLKNEDTATYFCSISYYYAMDYWGQGTSVTVSS VL: DIVLTQSPASLAVSLGQRATISCRASKSVSTSGYSFLHWYQQKPGQPPKLLIYFASNLESGVPARFSGSGSGTDFTLNIHPVEEEDAATYYCQHSRELPRTFGGGTKLEIKR	~0.08 µg/mL
552-LN2-E6 hIgG1 (antibody, V domains shown, Human-mouse chimeric antibody, human IgG1 format; also called [8]) VH: QIQLVQSGPELKKPGETVKISCMASGYTFTDYSVRWVKQAPGKGLEWMGWINTETGEPTYADDFKGRFAFSLETSASTAYLQINNLKNEDTATYFCAISYYYALDYWGHGTSVTVSS VL: DIVLTQSPASLTVSLGQRATISCRASKSVSTSVYSFLHWYQQKPGQPPKLLIYLASNLESGVPARFSGSGSGTDFTLNIHPVEEEDAATYYCQHSRELPRTFGGGTKLEIKR	~0.08 µg/mL

As a next step, examine the binder that follows.
EC50 (read off the curve) reported for this binder J6M0 (antibody, V domains shown, also called J6M0-hIgG1; anti-BCMA) VH: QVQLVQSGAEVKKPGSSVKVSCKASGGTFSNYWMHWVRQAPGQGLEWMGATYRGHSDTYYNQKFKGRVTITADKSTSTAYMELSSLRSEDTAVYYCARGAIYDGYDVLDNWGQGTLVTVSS VL: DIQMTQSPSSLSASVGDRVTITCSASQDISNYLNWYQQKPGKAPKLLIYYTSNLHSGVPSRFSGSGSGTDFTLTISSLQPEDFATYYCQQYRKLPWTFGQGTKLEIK : ~0.01 µg/mL
